Tested on: Vero E6 infected with SARS-CoV-2
Experiment: morphology score (similarity to uninfected cells); higher = more like uninfected cells
Conditions: 24 h
What morphology score was measured for each of the following?

Query: Field request: morphology score | item: C[C@H](N)Cn1ccc2cc(F)c(Cl)cc21 (10 µM)
Reply: 0.45

Query: Field request: morphology score | item: CCCN1CCN(c2ccc(C(=O)NC3(C(=O)NCC#N)CCCCC3)cc2)CC1 [balicatib] (10 µM)
Reply: 0.59

Query: Field request: morphology score | item: CCN(C(C)=O)c1cccc(-c2ccnc3c(C#N)cnn23)c1 (10 µM)
Reply: 0.0588

Query: Field request: morphology score | item: c1cc(Cc2cnc[nH]2)ccn1 [immethridine] (10 µM)
Reply: 0.158

Query: Field request: morphology score | item: Cc1ccc2cc(-c3c(C)ccc(C(=O)c4c(-c5ccccc5)n(C)n(-c5ccccc5)c4=O)c3N)ccc2n1 (10 µM)
Reply: 0.0631

Query: Field request: morphology score | item: N#CCCCSC(=N)N [kevetrin] (10 µM)
Reply: 0.195

Query: Field request: morphology score | item: O=C(O)C[CH2][Ge](=[O])[O][Ge](=[O])[CH2]CC(=O)O [propagermanium] (10 µM)
Reply: 0.128

Query: Field request: morphology score | item: C[C@]12CCC(=O)C[C@@H]1CC[C@@H]1[C@@H]2CC[C@]2(C)C=CC[C@@H]12 [androstenone] (10 µM)
Reply: -0.064

Query: Field request: morphology score | item: OC[C@@H](O)[C@@H](O)[C@@H](O)CO [ribitol] (10 µM)
Reply: 0.073

Query: Field request: morphology score | item: Cc1cc(O)c(-c2ccc([C@@H](C)CN)cc2)c2c1[nH]c(=O)c1sccc12 (0.833333 µM)
Reply: -0.046

Query: Field request: morphology score | item: CC1(C)CC(=O)c2c(C(F)(F)F)nn(-c3ccc(C(N)=O)c(N[C@H]4CC[C@H](OC(=O)CN)CC4)c3)c2C1 (10 µM)
Reply: 0.127

Query: Field request: morphology score | item: CCCCCCCC(=O)N[C@H](CN1CCCC1)[C@H](O)c1ccc2c(c1)OCCO2 [eliglustat] (10 µM)
Reply: 0.2

Query: Field request: morphology score | item: Cc1nccc2[nH]c(=O)ccc12 [medorinone] (10 µM)
Reply: 0.145

Query: Field request: morphology score | item: CC(C)(C)/[N+]([O-])=C/c1ccc(S(=O)(=O)O)cc1S(=O)(=O)O (10 µM)
Reply: 0.00191

Query: Field request: morphology score | item: CCOc1cc(C(C)(C)C)ccc1C1=N[C@@](C)(c2ccc(Cl)cc2)[C@@](C)(c2ccc(Cl)cc2)N1C(=O)N1CCN(CCCS(C)(=O)=O)CC1 (10 µM)
Reply: -0.0507

Query: Field request: morphology score | item: O=C(NC1CCC1)c1ccc(C#Cc2cccc(F)c2)nc1 (10 µM)
Reply: 0.0178

Query: Field request: morphology score | item: CC[N+](CC)(CC(=O)Nc1c(C)cccc1C)Cc1ccccc1 [denatonium-benzoate] (10 µM)
Reply: 0.144

Query: Field request: morphology score | item: NNC(=O)CSc1nc2scc(-c3ccccc3)c2c(=O)n1-c1ccccc1 (10 µM)
Reply: -0.0192

Query: Field request: morphology score | item: COc1ccc2[nH]c([S+]([O-])Cc3ncc(C)c(OC)c3C)nc2n1 (stereo not given) [tenatoprazole] (10 µM)
Reply: 0.162

Query: Field request: morphology score | item: CCOC(=O)[C@]12CC1/C(=N\O)c1ccccc1O2 (stereo not given in full) (10 µM)
Reply: 0.224

Query: Field request: morphology score | item: CC(C)NCC(O)c1cc(O)cc(O)c1 (stereo not given) [metaproterenol] (10 µM)
Reply: 0.132

Query: Field request: morphology score | item: C[C@]12CC[C@H](O)C[C@H]1CC[C@@H]1[C@@H]2CC[C@]2(C)[C@@H](C3=CC(=O)OC3)CC[C@]12O [digitoxigenin] (0.833333 µM)
Reply: -0.0679

Query: Field request: morphology score | item: NS(=O)(=O)c1cc2c(cc1C(F)(F)F)NC(Cc1ccccc1)NS2(=O)=O (stereo not given) [bendroflumethiazide] (10 µM)
Reply: 0.136

Query: Field request: morphology score | item: C1CCC(C(CC2CCCCN2)C2CCCCC2)CC1 (stereo not given) [perhexiline] (0.833333 µM)
Reply: -0.219

Query: Field request: morphology score | item: O=C(NNC(=O)c1ccc(CNS(=O)(=O)c2ccc(F)c(Cl)c2)cc1)c1ccccc1 (10 µM)
Reply: -0.0845

Query: Field request: morphology score | item: CC(=O)NCCC(=O)N[C@@H](Cc1c[nH]cn1)C(=O)O [N-acetylcarnosine] (10 µM)
Reply: -0.122

Query: Field request: morphology score | item: Cc1ccccc1-n1c(CF)nc2ccc(N)cc2c1=O [afloqualone] (10 µM)
Reply: 0.166

Query: Field request: morphology score | item: Nc1ccc(S(=O)(=O)Nc2cnc3ccccc3n2)cc1 [sulfaquinoxaline] (10 µM)
Reply: 0.114

Query: Field request: morphology score | item: Cc1ccc(/C=C2\CNC/C(=C\c3ccc(C)cc3)C2=O)cc1 (0.833333 µM)
Reply: 0.168

Query: Field request: morphology score | item: CCC(=O)N[C@@H]1Cc2ccccc2[C@H](c2ccccc2)C1 (10 µM)
Reply: -0.0816

Query: Field request: morphology score | item: CCCCC1CCC(c2nc(-c3ccncc3)no2)CC1 (stereo not given) (10 µM)
Reply: -0.00672

Query: Field request: morphology score | item: CSc1ccc(C(=O)c2[nH]c(=O)[nH]c2C)cc1 [enoximone] (10 µM)
Reply: 0.104

Query: Field request: morphology score | item: O=C(Nc1ccccc1)N1CCC(Cc2cnc3ccccc3c2)CC1 (10 µM)
Reply: -0.147

Query: Field request: morphology score | item: CCC(=O)c1cc(-c2ccc(Cl)cc2)n(-c2ccc(S(N)(=O)=O)cc2)c1C (10 µM)
Reply: 0.104

Query: Field request: morphology score | item: Cc1nnc2n1-c1sc(CCC(=O)N3CCOCC3)cc1C(c1ccccc1Cl)=NC2 [apafant] (10 µM)
Reply: -0.0825

Where these numbers come from: the supplement of paper PMC13380429
